Let's look at some binders and their measured EC50.
# Tested Target: T1, SARS-COV-2 RBD (SARS-COV-2, UniProt P0DTC2 319-539)
# T1 construct: also called WT RBD
# Assay Text: ELISA, RBD coated
# answer = value followed by unit

A selection of reference data follows.
C977 (antibody, V domains shown, IgG; V domains only) VH: EVQLVESGGGLVQPGGSLRLSCAASGFTFSNYDMHWVRQVTGKGLEWVSLIGTAADAYYADSVKGRFTISRENAKNSLYLQINSLRAGDTAVYFCARGDSSGLYTFFDYWGQGTLVTVSS VL: DIQMTQSPSSLSASVGDRVTITCRASQSVTRYLNWYQLKPGKAPKLLIYAASSLQSGVPSRFSGSGSGTDFTLTISSLQPEDFATYYCQQSYSTLGLTFGGGTKVEI
2.13 ng/mL
C1010 (antibody, V domains shown, IgG; V domains only) VH: QVQLVESGGGVVQPGRSLRLSCAASGFTFSSYAMHWVRQAPGKGLEWVAVISYDGSNKYYADSVKGRFTISRDNSKNTLYLQMNSLRAEDTAVYYCAKKGQPYCGGDCYFYYFDYWGQGTLVTVSS VL: DIQMTQSPSSLSASLGDRVTITCQASQDISNYLNWYQQKPGKAPKLLIYDASNLETGVPSRFSGSGSGTDFTFTISSLQPEDIATYYCQQYDNLPPITFGQGTRLEIK
2.45 ng/mL

We next turn to a different binder, shown below.
-- ask Any idea what EC50 was measured for C862 (antibody, V domains shown, IgG; V domains only) VH: QVQLQESGPGLVKPSQTLSLTCTVSGASISSSEHYWSWIRQPPGKGLEWIGYISYSGGTYQNPSLQSRMTLSMDASKNQFSLKLSSVTAADTAVYFCARLNTMIVMINGVFDVWGQGTMVTVSS VL: DIQMTQSPSSLSAFVGDRVTITCQASQDINKYVNWYQQKPGKAPKLLIYDASNLQTGVPSRFSGSGSGTHFTFTISSLQPEDFATYYCQEYDNLFSISFGQGTRLEIK ?
-- reply 2.14 ng/mL

Data origin, for the record: patent US20240218057A1
